System: 786-O
Test: Euclidean distance of Cell Painting phenotypic profile (signed KS, 77 features) to DMSO centroid (dimensionless distance); 5 or 10 uM (library dependent); higher = stronger phenotypic change vs DMSO (phenoactivity)
Settings: 48 h
For each of the molecules below, state its Euclidean distance.
Lab note: jot down the number only; don't add units.

Query: Item: O=C(Nc1ccc(OC(F)(F)Cl)cc1)c1cnc(N2CC[C@@H](O)C2)c(-c2cc[nH]n2)c1 [Asciminib (ABL001)] Test system: 786-O Read-out: Euclidean distance Value: ?
Reply: 1.54

Query: Try this molecule next: CC(=O)N[C@H]1[C@H]([C@H](O)[C@H](O)CO)OC(C(=O)O)=C[C@@H]1NC(=N)N [Zanamivir]
Reply: 1.74

Query: Try this molecule next: CNC(CC(=O)O)C(=O)O [NMDA (N-Methyl-D-aspartic acid)]
Reply: 0.691

Query: Try this molecule next: COC(=O)Nc1nc2cc(C(=O)c3ccc(F)cc3)ccc2[nH]1 [Flubendazole]
Reply: 2.74

Query: Try this molecule next: O=c1cc(-c2ccc(O)c(O)c2)oc2cc(O)cc(O)c12 [Luteolin]
Reply: 1.39

Query: Try this molecule next: `Cc1cc(-c2ncc(CC(=O)Nc3ccc(-c4cnccn4)cn3)cc2C)ccn1`
Reply: 1.05

Query: Try this molecule next: COc1ccc(C2CC(=O)c3c(O)cc(OC4OC(COC5OC(C)C(O)C(O)C5O)C(O)C(O)C4O)cc3O2)cc1OC (centres undefined) [Methyl-Hesperidin]
Reply: 0.924

Query: Try this molecule next: O=C(O)Cc1cc(I)c(Oc2ccc(O)c(I)c2)c(I)c1 [Tiratricol]
Reply: 0.855

Query: Try this molecule next: C[C@@](Cc1ccc(O)c(O)c1)(NN)C(=O)O [Carbidopa]
Reply: 1.38

Query: Try this molecule next: CC(=O)Oc1cc(C(F)(F)F)ccc1C(=O)O [Triflusal]
Reply: 1.03

Query: Try this molecule next: `CNC(=O)c1cccc(-c2ccc3c(N4CCOC[C@@H]4C)nc(N4CCOC[C@@H]4C)nc3n2)c1`
Reply: 4

Query: Try this molecule next: `Fc1cc(-c2cccc3ncc(-c4cnn(C5CCNCC5)c4)nc23)cc(F)c1CN1CCOCC1`
Reply: 2.09

Query: Try this molecule next: CN(C)CC/C=C1/c2ccccc2Sc2ccc(Cl)cc21 [Chlorprothixene]
Reply: 1.17

Query: Try this molecule next: COc1ccccc1OCCNCC(O)COc1cccc2[nH]c3ccccc3c12 (centres undefined) [Carvedilol]
Reply: 1.59

Query: Try this molecule next: Cc1c(C(=O)NN2CCCCC2)nn(-c2ccc(Cl)cc2Cl)c1-c1ccc(Cl)cc1 [Rimonabant]
Reply: 1.92

Query: Try this molecule next: `Cc1cc2c(C(N)=O)cccc2n1-c1nc2c(c(NCc3ccccc3)n1)COCC2`
Reply: 6.05

Query: Try this molecule next: Cn1c(=O)c2c(ncn2CC(O)CO)n(C)c1=O (centres undefined) [Dyphylline]
Reply: 1.02

Query: Try this molecule next: `C/C(=N\NC(=S)N1CCC1)c1ccccn1`
Reply: 3.65

Query: Try this molecule next: `O=C(O)Cn1nnc(-c2cc(N3CCC(Oc4cc(F)ccc4Br)CC3)no2)n1`
Reply: 0.964
